Test system: CCRIS mutagenicity, Ames/micronucleus/aberration tests
METHOD DESCRIPTION: CCRIS mutagenicity studies
TEST CONDITIONS: Test System: AMES SALMONELLA TYPHIMURIUM; Strain/Indicator: TA1535; Metabolic Activation: NONE; Method: PREINCUBATION
Active and inactive are the calls of the source. The rule behind the calls is not given here.
# output must be one of active, inactive

// below: answered molecules
C=CC1CO1 (stereo not given): active
NCc1cccc(CN)c1: inactive
CC(O)CN(CC(C)O)CC(C)O (stereo not given) (tested in a mixture with another compound): inactive

Exam item: Per the records of this test, what outcome belongs to "[Ga]#[As]" ?
Marked response: inactive

The reported measurements were obtained from PubChem BioAssay AID1259407.
